molecular target: recombinant human CD3ε/δ heterodimer (human) (UniProt P07766); assay: BLI (Octet), antigen on anti-Penta His sensor, antibody 50 nM
Sequence (P07766 23-126, stated change not applied, chain 1 of 2): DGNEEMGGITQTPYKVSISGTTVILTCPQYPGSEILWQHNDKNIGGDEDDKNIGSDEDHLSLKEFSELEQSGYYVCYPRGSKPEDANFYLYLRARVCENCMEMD
Sequence (P04234 22-105, stated change not applied, chain 2 of 2, further chain): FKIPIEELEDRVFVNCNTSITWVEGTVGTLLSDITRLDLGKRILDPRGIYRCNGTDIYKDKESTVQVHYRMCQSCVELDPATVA
measuredParameter: kon (M⁻¹ s⁻¹)
One number for each entry, in M⁻¹ s⁻¹.

// kon value for A15 (antibody, human IgG1, lambda, L234A L235A, V domains shown) VH: EVQLVESGGGLVQPGGSLKLSCAASGFTFNTYAMNWVRQASGKGLEWVGRIRSKYNNYATYYADSVKDRFTISRDDSKNTAYLQMNSLKTEDTAVYYCVRHGNFGNSYVSWFAYWGQGTLVTVSS VL: QAVVTQEPSLTVSPGGTVTLTCRSSTGAVTTSNYANWVQQKPGQAPRGLIGGTNKRAPWTPARFSGSLLGGKAALTLSGAQPEDEAEYYCALWYSNLWVFGGGTKLTVLG : 323000
